biological target: NAMPT (Homo sapiens); assay: TR-FRET Binding Assay of NAMPT with PRPP; conditions: with 200 μM PRPP and 2.5 mM ATP; 2 nM NAMPT, 2 nM probe, 16 hours equilibration
Sequence (P43490 whole entry): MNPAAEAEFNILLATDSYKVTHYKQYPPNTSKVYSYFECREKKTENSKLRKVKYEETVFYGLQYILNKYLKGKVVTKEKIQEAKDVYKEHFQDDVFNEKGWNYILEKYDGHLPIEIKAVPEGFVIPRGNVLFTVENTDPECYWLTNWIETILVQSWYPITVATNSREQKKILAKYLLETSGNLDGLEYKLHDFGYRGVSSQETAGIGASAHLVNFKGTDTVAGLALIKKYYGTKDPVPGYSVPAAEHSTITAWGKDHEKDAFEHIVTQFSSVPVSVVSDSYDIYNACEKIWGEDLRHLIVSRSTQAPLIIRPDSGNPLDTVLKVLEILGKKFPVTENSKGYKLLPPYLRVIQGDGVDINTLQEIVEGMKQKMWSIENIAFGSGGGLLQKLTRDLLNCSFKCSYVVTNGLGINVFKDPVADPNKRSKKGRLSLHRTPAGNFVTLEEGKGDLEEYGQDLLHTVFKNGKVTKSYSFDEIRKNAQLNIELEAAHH
Please note: IC50 exactly at 300 pM is not satisfied. Only values below 300 pM get satisfied.

query: Dear colleague, could you confirm whether IC50 of O=C(NCc1ccn2ccnc2c1)c1ccc(C2CN(C(=O)c3cccc(C(F)(F)F)c3)C2)cc1 [Example 671] falls below 300 pM? Thanks.
result: not satisfied

query: Dear colleague, could you confirm whether IC50 of CC(C)(C)OC(=O)N1CCC(c2ccc(C(=O)NCc3ccn4ccnc4c3)cc2)CC1 [Example 217] falls below 300 pM? Thanks.
result: satisfied

query: Dear colleague, could you confirm whether IC50 of O=C(Nc1ccc(C(=O)NCC2CCOCC2)cc1)Nc1ccc2nccn2c1 [Example 22] falls below 300 pM? Thanks.
result: satisfied

query: Dear colleague, could you confirm whether IC50 of O=C(NCc1ccn2ccnc2c1)c1ccc(OC2CCN(C(=O)C3COCCO3)CC2)cc1 (centres unmarked) [Example 421] falls below 300 pM? Thanks.
result: satisfied

query: Dear colleague, could you confirm whether IC50 of O=C(NCc1ccn2ccnc2c1)c1ccc(C2CN(C(=O)CC3CCOCC3)C2)cc1 [Example 551] falls below 300 pM? Thanks.
result: not satisfied

query: Dear colleague, could you confirm whether IC50 of Cn1cc(CCC(=O)N(CC2CCCO2)c2ncc(C(=O)NCc3ccc4nccn4c3)s2)cn1 (centres unmarked) [Example 130] falls below 300 pM? Thanks.
result: not satisfied

query: Dear colleague, could you confirm whether IC50 of O=C(NCc1ccc2nccn2c1)c1cnc(N2Cc3ccccc3C2)s1 [Example 88] falls below 300 pM? Thanks.
result: not satisfied

query: Dear colleague, could you confirm whether IC50 of CC(C)OCC(=O)N1CC(c2ccc(NC(=O)NCc3ccn4ccnc4c3)cc2)C1 [Example 456] falls below 300 pM? Thanks.
result: satisfied

---

target: NAMPT (human, recombinant, C-terminally His-tagged) (Homo sapiens); experiment: Time-Resolved Fluorescence Resonance Energy Transfer (TR-FRET) Binding Assay of NAMPT; settings: without substrates; 6.8 nM NAMPT, 200 nM probe, 3 hours equilibration
Sequence (P43490 whole entry): as above
For each entry below, report its pIC50 value.
Formally, pIC50 is defined as -log10 of the concentration c, with c in mol/L.

query: Please give the measured pIC50 for this compound: O=C(NCc1ccc2nccn2c1)c1cnc(N2Cc3ccccc3C2)s1
result: 5.55

query: Please give the measured pIC50 for this compound: CC(C)(C)CC(=O)N1CCC(O)(c2ccc(C(=O)NCc3ccn4ccnc4c3)s2)CC1
result: 6.37

query: Please give the measured pIC50 for this compound: O=C(NCc1ccc2nccn2c1)c1cnc(N(CC2CCOC2)C(=O)C2CCOCC2)s1 (centres unmarked)
result: 5.87

query: Please give the measured pIC50 for this compound: O=C(NCc1ccn2ccnc2c1)Nc1ccc(-c2cnn(CC3CCOCC3)c2)cc1
result: 6.42

query: Please give the measured pIC50 for this compound: O=C(NCc1ccn2ccnc2c1)c1ccc(-c2cnn(CC3CCCCO3)c2)s1 (centres unmarked)
result: 7.20

query: Please give the measured pIC50 for this compound: O=C(CC1CCOC1)Nc1ccc(C(=O)NCc2ccc3nccn3c2)cc1 (centres unmarked)
result: 7.25

query: Please give the measured pIC50 for this compound: O=C(NCc1ccn2ccnc2c1)c1cnc(N(C[C@H]2CCCO2)C(=O)CCc2ccno2)s1
result: 7.49

query: Please give the measured pIC50 for this compound: CC(C)CCNC(=O)c1ccc(NC(=O)Nc2ccn3ccnc3c2)cc1
result: 6.07

query: Please give the measured pIC50 for this compound: O=C(CC1CCOCC1)Nc1ccc(C(=O)NCc2ccn3ccnc3c2)cc1
result: 6.39

query: Please give the measured pIC50 for this compound: CC(C)(C)OC(=O)N1CC=C(c2ccc(NC(=O)Nc3ccc4nccn4c3)cc2)CC1
result: 6.29

query: Please give the measured pIC50 for this compound: O=C(NCc1ccn2ccnc2c1)c1ccc(C2CCN(C(=O)c3ccccc3Cl)C2)cc1 (centres unmarked)
result: 7.64

query: Please give the measured pIC50 for this compound: O=C(NCc1ccn2ccnc2c1)c1ccc(C2CCN(C(=O)C3CCC(F)(F)CC3)CC2)cc1
result: 6.47

query: Please give the measured pIC50 for this compound: O=C(NCc1ccc2nccn2c1)c1ccc(C2=CCN(C(=O)C3CCC(F)(F)CC3)CC2)cc1
result: 6.97

query: Please give the measured pIC50 for this compound: O=C(NCc1ccc2nccn2c1)c1cnc(N(CC2CCCO2)C(=O)Cc2cscn2)s1 (centres unmarked)
result: 6.09

query: Please give the measured pIC50 for this compound: Cc1ccccc1C(=O)N1CCC(c2ccc(C(=O)NCc3ccn4ccnc4c3)cc2)CC1
result: 6.92

query: Please give the measured pIC50 for this compound: CC(C)(C)OC(=O)N1CCC(c2ccc(C(=O)NCc3ccn4ccnc4c3)cc2)C1 (centres unmarked)
result: 6.54

query: Please give the measured pIC50 for this compound: CC(C)C(=O)N1CC=C(c2ccc(C(=O)NCc3ccc4nccn4c3)cc2)CC1
result: 6.69

---

Listed here: molecules with reported IC50 for NAMPT (Homo sapiens).
// return numeric value only (unit: nM, not printed)

query: Record O=C(NCc1ccn2ccnc2c1)c1ccc(-c2cnn(C[C@@H]3CCCO3)c2)s1 [Example 397] : what is its IC50 with NAMPT (Homo sapiens)?
result: 0.169

query: Record CCC(C)CNC(=O)c1ccc(NC(=O)Nc2ccc3nccn3c2)cc1 (stereo not drawn) [Example 20] : what is its IC50 with NAMPT (Homo sapiens)?
result: 0.169

query: Record O=C(NCc1ccn2ccnc2c1)c1cnc(N(C[C@H]2CCCO2)C(=O)Cc2cscn2)s1 [Example 196] : what is its IC50 with NAMPT (Homo sapiens)?
result: 0.169

query: Record O=C(NCc1ccc2nccn2c1)c1ccc(C2=CCN(C(=O)CCC3CCCO3)CC2)cc1 (stereo not drawn) [Example 96] : what is its IC50 with NAMPT (Homo sapiens)?
result: 1.56

query: Record O=C(NCc1ccn2ccnc2c1)c1ccc(C2CN(C(=O)c3cnccn3)C2)cc1 [Example 635] : what is its IC50 with NAMPT (Homo sapiens)?
result: 0.975

query: Record O=C(NCc1ccn2ccnc2c1)c1ccc(C2CCN(C(=O)CC(F)(F)F)CC2)s1 [Example 572] : what is its IC50 with NAMPT (Homo sapiens)?
result: 0.403

query: Record CC[C@H](C)C(=O)N1CC(c2ccc(NC(=O)NCc3ccn4ccnc4c3)cc2)C1 [Example 453] : what is its IC50 with NAMPT (Homo sapiens)?
result: 0.258

query: Record Cc1cc(C(=O)N2CCC(c3ccc(C(=O)NCc4ccn5ccnc5c4)s3)C2)c(C)o1 (stereo not drawn) [Example 778] : what is its IC50 with NAMPT (Homo sapiens)?
result: 0.414

query: Record CC(C)(O)C(=O)N1CCC(Oc2ccc(C(=O)NCc3ccc4nccn4c3)cc2)CC1 [Example 166] : what is its IC50 with NAMPT (Homo sapiens)?
result: 1.81

query: Record O=C(Nc1ccc(C2=CCN(C(=O)CN3CCOCC3)CC2)cc1)Nc1ccc2nccn2c1 [Example 30] : what is its IC50 with NAMPT (Homo sapiens)?
result: 0.785

query: Record O=C(NCc1ccn2ccnc2c1)c1ccc(O[C@H]2CCN(C(=O)[C@@H]3CCOC3)C2)cc1 [Example 339] : what is its IC50 with NAMPT (Homo sapiens)?
result: 0.797

query: Record O=C(NCc1ccn2ccnc2c1)c1ccc(C2CCN(C(=O)Cc3ccccc3F)C2)s1 (stereo not drawn) [Example 765] : what is its IC50 with NAMPT (Homo sapiens)?
result: 0.782

query: Record O=C(NCc1ccn2ccnc2c1)Nc1ccc(C2CCN(C(=O)[C@H]3CCOC3)C2)cc1 (stereo partly drawn) [Example 388] : what is its IC50 with NAMPT (Homo sapiens)?
result: 0.506

query: Record O=C(NCc1ccn2ccnc2c1)c1ccc(C2CN(C(=O)CC3CCCC3)C2)cc1 [Example 629] : what is its IC50 with NAMPT (Homo sapiens)?
result: 0.643

query: Record CC(C)(O)C(=O)N1CC=C(c2ccc(C(=O)NCc3ccc4nccn4c3)cc2)CC1 [Example 91] : what is its IC50 with NAMPT (Homo sapiens)?
result: 1.26

query: Record O=C(NCc1ccc2nccn2c1)c1ccc(C(=O)NC[C@@H]2CCOC2)cc1 [Example 359] : what is its IC50 with NAMPT (Homo sapiens)?
result: 2.5

query: Record CC(C)C(=O)N1CC(c2ccc(NC(=O)NCc3ccn4ccnc4c3)cc2)C1 [Example 452] : what is its IC50 with NAMPT (Homo sapiens)?
result: 0.285

query: Record Cc1noc(C)c1CC(=O)N(C[C@H]1CCCO1)c1ncc(C(=O)NCc2ccn3ccnc3c2)s1 [Example 199] : what is its IC50 with NAMPT (Homo sapiens)?
result: 0.311

query: Record O=C(NCc1ccn2ccnc2c1)c1ccc(-c2cnn(CC3CCNCC3)c2)s1 [Example 485] : what is its IC50 with NAMPT (Homo sapiens)?
result: 0.205

query: Record O=C(NCc1ccc2nccn2c1)c1ccc(OC2CCN(C(=O)C3CCOCC3)CC2)cc1 [Example 162] : what is its IC50 with NAMPT (Homo sapiens)?
result: 2.09

query: Record O=C(NCc1ccn2ccnc2c1)Nc1ccc(C2CCN(C(=O)C3COCCO3)CC2)cc1 (stereo not drawn) [Example 222] : what is its IC50 with NAMPT (Homo sapiens)?
result: 0.192

query: Record O=C(NCc1ccc2nccn2c1)c1cnc(N(C[C@H]2CCCO2)C(=O)C2CCOCC2)s1 [Example 147] : what is its IC50 with NAMPT (Homo sapiens)?
result: 0.63

query: Record O=C(NCc1ccn2ccnc2c1)c1ccc(C2CCN(C(=O)c3ccc(F)cc3F)C2)cc1 (stereo not drawn) [Example 592] : what is its IC50 with NAMPT (Homo sapiens)?
result: 0.603

query: Record CC(C)(C(=O)N1CCC(c2ccc(C(=O)NCc3ccn4ccnc4c3)cc2)C1)c1ccccc1 (stereo not drawn) [Example 732] : what is its IC50 with NAMPT (Homo sapiens)?
result: 0.471

query: Record O=C(NCc1ccn2ccnc2c1)c1cnc(C2CCN(C(=O)c3ccccc3)CC2)s1 [Example 545] : what is its IC50 with NAMPT (Homo sapiens)?
result: 0.403

query: Record CC1(C(=O)N2CC(c3ccc(C(=O)NCc4ccn5ccnc5c4)cc3)C2)CC1 [Example 632] : what is its IC50 with NAMPT (Homo sapiens)?
result: 0.698

query: Record CC(C)(O)Cn1cc(-c2ccc(C(=O)NCc3ccn4ccnc4c3)s2)cn1 [Example 182] : what is its IC50 with NAMPT (Homo sapiens)?
result: 0.4

query: Record O=C(NCc1ccn2ccnc2c1)Nc1ccc(OC2CCN(C(=O)c3cc(F)cc(F)c3)CC2)cc1 [Example 730] : what is its IC50 with NAMPT (Homo sapiens)?
result: 0.847

query: Record O=C(NCc1ccn2ccnc2c1)Nc1ccc(OC2CN(C(=O)C3COCCO3)C2)cc1 (stereo not drawn) [Example 434] : what is its IC50 with NAMPT (Homo sapiens)?
result: 0.169

query: Record CC(C)CC(=O)N1CCC(c2ccc(C(=O)NCc3ccn4ccnc4c3)s2)CC1 [Example 263] : what is its IC50 with NAMPT (Homo sapiens)?
result: 0.247

query: Record O=C(CC1CCCO1)Nc1ccc(NC(=O)NCc2ccc3nccn3c2)cc1 (stereo not drawn) [Example 277] : what is its IC50 with NAMPT (Homo sapiens)?
result: 0.667

query: Record O=C(NCc1ccc2nccn2c1)c1ccc(-c2cnn(CC3CCOCC3)c2)s1 [Example 201] : what is its IC50 with NAMPT (Homo sapiens)?
result: 0.281

query: Record CC1(C(=O)N2CCC(c3ccc(C(=O)NCc4ccn5ccnc5c4)cc3)CC2)COC1 [Example 512] : what is its IC50 with NAMPT (Homo sapiens)?
result: 0.209
